# Measured On: CDK9/Cyclin T1 (Homo sapiens (Human))
# Sequence (P50750 whole entry): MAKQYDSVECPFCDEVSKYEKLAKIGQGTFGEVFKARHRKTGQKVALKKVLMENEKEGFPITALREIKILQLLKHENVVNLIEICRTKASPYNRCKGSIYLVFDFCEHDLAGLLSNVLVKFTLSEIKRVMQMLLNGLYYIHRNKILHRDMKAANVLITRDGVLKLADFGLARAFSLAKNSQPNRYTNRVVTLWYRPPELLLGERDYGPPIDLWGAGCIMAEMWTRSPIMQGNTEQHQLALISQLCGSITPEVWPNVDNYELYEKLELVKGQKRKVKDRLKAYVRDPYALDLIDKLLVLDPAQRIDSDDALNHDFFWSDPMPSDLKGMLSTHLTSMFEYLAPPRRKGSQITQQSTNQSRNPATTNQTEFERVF
# Sequence (O60563 whole entry partner): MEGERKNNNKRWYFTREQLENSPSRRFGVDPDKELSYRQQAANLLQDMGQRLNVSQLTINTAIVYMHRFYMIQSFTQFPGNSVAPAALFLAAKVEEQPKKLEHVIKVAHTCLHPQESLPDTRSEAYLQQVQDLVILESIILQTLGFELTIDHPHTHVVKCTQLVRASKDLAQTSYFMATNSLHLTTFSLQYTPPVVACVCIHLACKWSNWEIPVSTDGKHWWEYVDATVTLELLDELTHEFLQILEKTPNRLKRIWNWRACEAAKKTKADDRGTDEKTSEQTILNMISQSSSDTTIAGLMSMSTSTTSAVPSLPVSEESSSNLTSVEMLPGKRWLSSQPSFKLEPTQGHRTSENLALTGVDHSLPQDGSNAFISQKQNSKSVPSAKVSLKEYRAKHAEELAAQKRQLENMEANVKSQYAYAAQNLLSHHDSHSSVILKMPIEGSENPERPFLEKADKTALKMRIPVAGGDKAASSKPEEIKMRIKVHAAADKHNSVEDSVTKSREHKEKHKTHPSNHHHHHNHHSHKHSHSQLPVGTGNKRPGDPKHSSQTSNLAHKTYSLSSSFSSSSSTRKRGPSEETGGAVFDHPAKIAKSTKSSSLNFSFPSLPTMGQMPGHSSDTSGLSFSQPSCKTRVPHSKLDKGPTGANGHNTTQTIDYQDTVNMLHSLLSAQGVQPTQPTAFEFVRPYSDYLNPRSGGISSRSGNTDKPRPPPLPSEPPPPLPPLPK
# Experiment Notes: CDK9 enzyme assay (LANCE ULight TR-FRET kinase assay)
# Assay type: biochemical
# Experimental Setup: 1000 μM ATP, 100 nM ULight MBP, kinase reaction 1 hour
pIC50: −log10 of the molar value.
Is pIC50 at least 7? Then 1.0. If not, 0.0.

Lookup: In plain terms: is recorded pIC50 at least 7 for CN1Cc2c(C3=CCN(S(C)(=O)=O)CC3)[nH]c3nccc(c23)-c2cc(F)ccc21 [Example 4] ?
Found: 1.0

Lookup: In plain terms: is recorded pIC50 at least 7 for CN1Cc2c(C3=CCCN(CC(=O)N4CCC[C@H]4CO)C3)[nH]c3nccc(c23)-c2cc(F)ccc21 [Example 120] ?
Found: 0.0
